Source listed as paper PMC8600648.

- target-or-system: TMV-CP (tobacco mosaic virus coat protein) (Tobacco mosaic virus (vulgare))
- Sequence (P69687 2-159 limits assumed): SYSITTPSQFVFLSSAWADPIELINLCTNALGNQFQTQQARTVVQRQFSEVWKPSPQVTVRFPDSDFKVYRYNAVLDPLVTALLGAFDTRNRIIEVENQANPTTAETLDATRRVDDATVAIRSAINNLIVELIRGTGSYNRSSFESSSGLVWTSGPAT
metric-name: Kd (µM)
Number only, in µM; omit the unit.

Ask: Under TMV-CP (tobacco mosaic virus coat protein) (Tobacco mosaic virus (vulgare)): Kd value of O=c1c(O)c(-c2cc(O)c(O)c(O)c2)oc2cc(O)cc(O)c12 [myricetin] ?
Reply: 62.2
